Target: HLA-A*68:02
Experiment: IEDB peptide-MHC binding, purified MHC/competitive/fluorescence; filed as Kd, often an IC50 or EC50 that approximates it; bounds were set here for any values at or beyond the usual limits of such assays
Details: source organism: Vaccinia virus Copenhagen
pKd: −log10 of the molar value.

[
  {
    "monomerSequence": "ALYSYASAK",
    "pKd": "≤ 4.70"
  }
]

====

Target: HLA-A*02:19
Assay: IEDB peptide-MHC binding, purified MHC/competitive/fluorescence; filed as Kd, often an IC50 or EC50 that approximates it; bounds were set here for any values at or beyond the usual limits of such assays
Settings: source organism: Listeria monocytogenes serotype 4b str. H7858

[
  {
    "monomerSequence": "ITWPRTRHW",
    "Kd": "≥ 20 µM"
  }
]
